Answer each item with its documented pIC50.
test system: MV4-11; experiment: cells; settings: Homo sapiens, MV4-11, 72 h
pIC50: −log10 of the molar value.

# Mol Smiles, pIC50
data = [
    ("Nc1ccc(-c2ccc3c(/C=C/c4ccc(C(=O)N5CCNCC5)cc4)n[nH]c3c2)cn1", "< 5.00"),
    ("Nc1cc(-c2ccc3c(CCc4ccc(CN5CCOCC5)c(F)c4)n[nH]c3c2)ccn1", "< 5.00"),
    ("Nc1cc(-c2ccc3c(-c4ccc(N5CCOCC5)cc4)n[nH]c3c2)ccn1", "< 5.00"),
    ("O=C(c1ccc(/C=C/c2n[nH]c3ccc(-c4cccnc4)cc23)cc1)N1CCNCC1", "< 5.00"),
    ("Nc1cc(-c2ccc3c(-c4ccc(S(=O)(=O)N5CCOCC5)cc4)n[nH]c3c2)ccn1", "< 5.00"),
    ("CN1CCN(c2ccc(-c3n[nH]c4cc(-c5ccnc(N)c5)ccc34)cc2)CC1", "< 5.00"),
    ("CCn1cc(-c2n[nH]c3cc(-c4ccnc(N)c4)ccc23)cn1", "< 5.00"),
]

Next up:
**Q:** Any idea what its pIC50 is? The compound is Nc1cc(-c2ccc3c(-c4cnn(CCO)c4)n[nH]c3c2)ccn1
**A:** < 5.00

// data source = ChEMBL document CHEMBL6182915
